# Test system: Vero E6 infected with SARS-CoV-2
# EXPERIMENT_DESCRIPTION: inhibition of SARS-CoV-2 cytopathic effect; higher = more antiviral protection, active = above 15
# TEST_SETTINGS: 10000 nM; 48 h
MEASURE: inhibition of SARS-CoV-2 cytopathic effect (%)
Answers are plain numbers, in %.

Here are 2 compounds together with their reported answers.
COMPOUND	READOUT_NUMBER
COc1c(Nc2ccc(S(C)(=O)=O)nc2C)ncnc1OC1CCN(C(=O)OC(C)C)CC1	-1.76
C[C@@H]1COCCN1c1cc(C2([S@](C)(=N)=O)CC2)nc(-c2ccnc3[nH]ccc23)n1	1.76

Your task in this section: give inhibition of SARS-CoV-2 cytopathic effect for each listed record.
1. CC(C)c1cc(-c2ccc(F)c3ccccc23)nc(N)n1
2. Cc1ccc(Cl)c(OC[C@H](O)CNC(C)C)c1
3. C=CCNc1nc(NCC=C)nc(N2CCN(C(c3ccc(F)cc3)c3ccc(F)cc3)CC2)n1
4. O=C(O)COCCN1CCN(C(c2ccccc2)c2ccc(Cl)cc2)CC1 (configuration not stated)
5. Cc1cccc(-c2[nH]c(C(C)(C)C)nc2-c2ccc3nccnc3c2)n1

**A:**
-2.34
-2.47
-8.59
-2.71
1.69

// each compound listed below needs its inhibition of SARS-CoV-2 cytopathic effect
1. NC(=O)c1ncn([C@@H]2O[C@H](CO)[C@@H](O)[C@H]2O)n1
2. CCOC(=O)[C@H](Cc1ccccc1)NC(=O)c1cc(Cl)c(OCCN2CCN(C)CC2)c(Cl)c1O
3. Cc1ncc(-c2csc(N=C(N)N)n2)[nH]1
4. CCOC(=O)[C@@H](N)Cc1ccc(-c2cc(O[C@H](c3ccc(Cl)cc3-n3ccc(C)n3)C(F)(F)F)nc(N)n2)cc1

**A:**
4.23
2.79
-0.54
2.26

Hi, could you look up inhibition of SARS-CoV-2 cytopathic effect for each item in my list?
1. Fc1ccc2nc(CCC#Cc3ccccn3)cn2c1
2. CC(C)(S)C(N)C(=O)O (stereo in doubt) [penicillamine-(racemic)]
3. N#CC(=C(/N)Sc1ccccc1N)/C(C#N)=C(/N)Sc1ccccc1N

**A:**
[2.02, -0.18, -8.7]

Report inhibition of SARS-CoV-2 cytopathic effect for each item below.
1. C=CCc1cc(OC)c(O)c(C(=O)NCCO)c1 [alibendol]
2. C1CCC2(CC1)CCNCC2 [4,4-pentamethylenepiperidine]
3. CNC(=O)c1cccc(NC(=O)N2CCC(Oc3ccccc3Cl)CC2)c1
4. Cc1ccc(-c2ccc(C)cn2)nc1
5. C=CC1=C(C(=O)O)N2C(=O)[C@@H](NC(=O)/C(=N\O)c3csc(N)n3)[C@H]2SC1

**A:**
1: -2.2; 2: 0.37; 3: -3.23; 4: -1.76; 5: 0.66

Okay, here is my list. What is inhibition of SARS-CoV-2 cytopathic effect for each of these?
1. CN(C)CC/C=C1/c2ccccc2Sc2ccc(Cl)cc21
2. CC(C)=CCC/C(C)=C/CC/C(C)=C/CSc1ccccc1C(=O)O

**A:**
1. -1.82
2. 0.01

Batch lookup, inhibition of SARS-CoV-2 cytopathic effect per entry.
1. NS(=O)(=O)C#Cc1ccccc1
2. C/C=C/c1cc(OC)c(OC)cc1OC
3. CC(C)(O)c1ccn2c(-c3ccc(F)c(-c4ccc(F)cc4C#N)c3)cnc2c1F
4. CCc1cccc2c3c([nH]c12)C(CC)(CC(=O)O)OCC3 (configuration not stated)
5. O[C@H]1CC[C@H](Nc2ncc3nc(Nc4c(F)cc(F)cc4F)n([C@H]4CCOC4)c3n2)CC1
6. COC1CCN(c2cccc(-c3cc(NC(C)=O)nc(-n4nc(C)cc4C)n3)n2)CC1
7. CC(C)c1cc2c(cc1S(=O)(=O)O)[C@@]1(C)CCC[C@@](C)(C(=O)O)[C@@H]1CC2

**A:**
[22.5, -0.33, -2.58, -0.69, -3.68, -0.2, -0.11]

For each entry beneath this line, provide reported inhibition of SARS-CoV-2 cytopathic effect.
1. NC(=O)c1cnccn1 [pyrazinamide]
2. C(=C\c1ccccc1)/CN1CCN(CCOC(c2ccccc2)c2ccccc2)CC1
3. O=C(CCc1ccc(O)cc1)c1c(O)cc(O)cc1O
4. Nc1ccc(S(=O)(=O)Nc2cnc3ccccc3n2)cc1

**A:**
1: -9.96; 2: 4.63; 3: -1.02; 4: 1.39
